Biological target: HLA A2.1 molecule (human)
Assay: T2 cells, flow cytometry (BB7.2); reference HIVpol 589
Please use y for RA (relative affinity) under 2 and n for everything else, ties included.

YLFFYRKSV (modifications not checked) [mhp 572Y1] | n
HLYQGCQVV (modifications not checked) [HER-2/neu 48] | y
DLQVNSLQTV (modifications not checked) [mhp 988] | n
PLQPEQLQV (modifications not checked) [HER-2/neu 391] | n

Dear colleague, could you confirm whether RA (relative affinity) of PLTSIISAV (modifications not checked) [HER-2/neu 650] falls below 2? Thanks.
y

Dear colleague, could you confirm whether RA (relative affinity) of SLFDFFHFL (modifications not checked) [mp 797] falls below 2? Thanks.
y

Dear colleague, could you confirm whether RA (relative affinity) of TLEEITGYL (modifications not checked) [HER-2/neu 402] falls below 2? Thanks.
n

Dear colleague, could you confirm whether RA (relative affinity) of YLEEITGYL (modifications not checked) [HER-2/neu 402Y1] falls below 2? Thanks.
n

Hey, just so you know, these numbers are from patent US20040072240A1.
